compounds and their reported viability
assay: growth suppression of beta-catenin knockout HCT116, pilot screen, human colon tumor cells (AID 823); conditions: CellTiter-Glo, 60 h, at 10 µM, active compounds read low;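 further: 0% = wells killed by 20 µM Hyamine and 100% = untreated DMSO cell wells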
Results filed as inconclusive are left out.
// units = %; emit number, no label

Here are 6 compounds together with their reported answers.
O=c1cc(N2CCOCC2)[nH]c(=O)n1Cc1ccc(F)cc1    95.3
C=C(C)Cn1c(COc2ccccc2)nnc1SCC(=O)O    89.7
COc1cccc(-n2c(Cc3cc(=O)[nH]c(=O)[nH]3)nnc2SCC(=O)NC2CCCC2)c1    101
Cn1c(SCC(=O)NCC2CCCO2)nc2c([nH]c3ccccc32)c1=O (stereo not drawn)    90.5
O=C(CCCCCn1c(=O)[nH]c2ccsc2c1=O)N1CCN(C2CCCCC2)CC1    95.3
COc1ccc(CC(=O)c2ccc(O)cc2O)cc1OC    95.6

Exercise: Give recorded viability. "O=C(NCS(=O)(=O)c1ccccc1)c1ccccc1"
Key: 101

Exercise: Respond only with viability recorded for "COc1ccc(CCNc2nc(=O)[nH]nc2C)cc1OC"
Key: 96

Exercise: Return the recorded viability value; entry: "O=C(c1cccs1)n1cc(C(=S)N2CCOCC2)c2ccccc21"
Key: 94.2

Exercise: State, in one line, measured viability of C=CCN1C(=O)C2C(C(=O)NC)C3(C)C=CC2(O3)C1C(=O)NCc1ccc(OC)cc1 (stereo not drawn)
Key: 103

Exercise: Give the measured viability for "CCc1nnc(SCc2ccc(OC)c(Br)c2)n1N"
Key: 104

Exercise: Check the records and state viability for "COc1cc(C2N(c3ccccc3)CCN2c2ccccc2)ccc1OC(C)=O"
Key: 96.3

Exercise: Give the reported value of viability for this record: "O=C(NCc1cccnc1)c1ccc(CS(=O)(=O)c2ccc(Br)cc2)o1"
Key: 95.3

Exercise: Give me measured viability, please, for this compound: "O=c1cc(-c2ccccc2Cl)c2c([nH]1)CCC2"
Key: 94.5

Exercise: Provide viability value for the following compound: Cc1nc2ccc(S(=O)(=O)NC(C(=O)NC3CCCC3)C(C)C)cc2s1 (stereo not drawn)
Key: 102

Exercise: Give me measured viability, please, for this compound: "CCOC(=O)c1ccccc1N1C(=O)CSC1=S"
Key: 96

Exercise: Name the recorded viability of the compound listed here: "CCOc1ccc(-n2c(Cc3cc(=O)[nH]c(=O)[nH]3)nnc2SCC(=O)NC2CCCC2)cc1"
Key: 101

Exercise: For the compound "Cc1ccc(-n2c(SCC(=O)Nc3nccs3)nc3c(c2=O)SCC3)cc1" , report viability.
Key: 94.2

====

# viability listing for each entry below
test: growth suppression of PTEN-deleted HCT116, pilot screen, cell-based, HCT116 clonal line, CellTiter-Glo (AID 824); details: 60 h, at 10 µM, active compounds read low;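 further: 0% = 20 µM Hyamine control and 100% = vehicle cell control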
Results filed as inconclusive are left out.
Record the value in %, omitting the unit from your answer.

Consider the worked cases shown below.
Cc1onc(-c2ccccc2Cl)c1C(=O)NC1CCS(=O)(=O)C1 (centres undefined)    106
CSc1oc(-c2ccc(F)cc2)nc1S(=O)(=O)c1ccccc1    93.7
Cc1ccc(C(=O)CC2(O)C(=O)N(C)c3ccccc32)o1 (centres undefined)    96.2

Exercise: Consider the molecule "CCOCCn1c(SCc2ccc(C)cc2)nc2c1c(=O)[nH]c(=O)n2C" . State its measured viability.
Key: 95.1
